Test: binders of probe aFGF10 on microarray, primary screen, stem cell growth factor project, biochemical, small-molecule microarray, fluorescence 635/667 (AID 1071);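 note: score merges 667 nm spot intensity and signal to noise from triplicate slides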
Conditions: higher = more signal
Known composite z-score of a selection of compounds
Write the number on its own, no unit after it.

compound: COc1cc(CO)cc(I)c1O[C@H]1C=C(C(=O)NCCO)C[C@@H](NCC2CCCCC2)[C@@H]1O
composite z-score: 0.542

compound: COC(=O)[C@@]1(Cc2ccccc2)[C@H]2c3cc(C(=O)N4CCCC4)n(CCSCCO)c3C[C@H]2CN1C(=O)c1ccccc1
composite z-score: 0.525

compound: Cc1ccc([C@H]2C(C(=O)O)=C[C@@H](C(C)(C)C)N2S(=O)(=O)c2ccc(C)cc2)cc1
composite z-score: 0.965

compound: O=C(N1CCOCC1)[C@@]1(CCS(=O)(=O)c2ccccc2)N=C(c2ccc(OCCCO)cc2)O[C@H]1c1ccccc1
composite z-score: 0.515

In: Recorded composite z-score for CCOC(=O)C=Cc1ccccc1O , please?
Out: 0.205

In: Try COCC1=C2[C@@H](CCc3ccccc3)OB(O)C[C@@H]2[C@@H]2C(=O)N(C)C(=O)[C@@H]2C1 next.
Out: 0.511

---

Target: Fibroblast growth factor 2 (Homo sapiens)
Assay: FGF2 binders on small-molecule microarrays, primary screen, biochemical, small-molecule microarray, 635/667 nm fluorescence (AID 1133)
Conditions: small-molecule microarray binding, FGF2, fluorescence 635/667; higher = more signal
Known composite z-score of a selection of compounds
Write the number on its own, no unit after it.

// worked examples, composite z-score included
compound: CC(C)[Si]1(C(C)C)OCc2cc(-c3ccc(-c4ccc(Cl)c(Cl)c4)o3)nc(CCc3ccccc3)c21
composite z-score: -0.11
//
compound: COC(=O)[C@@]1(Cc2ccc(OC)cc2)[C@H]2c3cc(C(=O)N4CCCC4)n(Cc4ccc(OC(F)(F)F)cc4)c3C[C@H]2CN1C(=O)c1ccccc1
composite z-score: -0.702
//
compound: CN(C)CCCCNC(=O)[C@H]1C[C@H]2C(=O)N[C@@H](CCCC[N+](C)(C)C)C(=O)N2[C@H]1c1ccc(O)cc1
composite z-score: 0.0954
//
compound: C=C(/C(=C/C[C@H](OC(=O)c1ccncc1)c1ccccc1OCCO)c1cnc2ccccc2c1)C(C)C
composite z-score: 1.42
//
compound: COCCOC(=O)N1C(=O)[C@@]2(c3cc(C#CCNC(N)=O)ccc31)[C@H](c1ccc(O)cc1)N1[C@H](c3ccccc3)[C@H](c3ccccc3)OC(=O)[C@H]1[C@@H]2C(=O)N1CCN(c2ncccn2)CC1
composite z-score: 0.671

In: What is its composite z-score for Fibroblast growth factor 2 (Homo sapiens)? Entry: C[C@]1(C(=O)NCCN2CCOCC2)c2ccccc2C(=O)N(Cc2cc(F)cc(C(F)(F)F)c2)[C@H]1c1ccc(CO)cc1
Out: -0.0787

In: Try C=CCNC(=O)[C@H]1[C@@H]2C(=O)O[C@@H](c3ccccc3)[C@@H](c3ccccc3)N2[C@@H](c2ccc(OCCO)cc2)[C@]12C(=O)N(C(=O)OCCOC)c1ccc(C#Cc3ccc(OC)cc3)cc12 next.
Out: 0.714

In: Try NC(=O)NCC#Cc1ccc2c(c1)[C@]1(C(=O)N2)[C@H](C(=O)N2CCN(c3ncccn3)CC2)[C@H]2C(=O)O[C@H](c3ccccc3)[C@H](c3ccccc3)N2[C@@H]1c1ccc(OCCO)cc1 next.
Out: 0.517

In: Try O=C1[C@@H]2[C@@H](CC(COc3ccccc3)=C3[C@@H](CCc4ccccc4)OB(O)C[C@@H]32)C(=O)N1Cc1ccccc1 next.
Out: 0.161

In: Try C=CCC(OC(C)=O)[C@@H]1[C@@H](N(Cc2ccc(-c3cccc(C(F)(F)F)c3)o2)C(=O)c2cccc3ccccc23)c2cc(OCCCO)ccc2N1C(=O)Cc1ccc(OC)cc1 (some centres not stated) next.
Out: -0.0117

In: Try Cc1ccc(C(C)CC(O)C2C=CC3C(=O)N(c4ccccc4)C(=O)C3N2Nc2ccc(C#N)cc2)o1 (configuration not stated) next.
Out: 0.37

In: Try CC(C)C[C@@H]1NC(=O)CNC(=O)[C@@]23C(=O)N[C@@H](Cc4ccccc4)C2[C@H](C)[C@@]2(C)O[C@H]2C3/C=C/C/C=C\CNC1=O (some centres not stated) next.
Out: 0.759

In: Try Cc1ccc(S[C@]2(C(=O)NCc3ccccc3)CC(=O)N(Cc3cc(C(F)(F)F)cc(C(F)(F)F)c3)[C@@H]2c2ccc(CO)cc2I)cc1 next.
Out: -1.45

In: Try C[C@@H]1ON(c2ccc(I)cc2)[C@H](c2ccc(OC(=O)OC(C)(C)C)cc2)[C@H]1C(=O)N1C(=O)OC[C@H]1Cc1ccccc1 next.
Out: 0.255

In: Try COc1cc(NN2C(C(O)c3ccccc3)C=CC3C(=O)N(C)C(=O)C32)cc(OC)c1OC (configuration not stated) next.
Out: 0.216

In: Try CCCCCN1CC=CC23O[C@@H]4/C=C\CCC(C)OC(=O)C4[C@H]2C(=O)N(CCCCCCO)[C@@H]3C1=O (some centres not stated) next.
Out: -0.0946

In: Try CC(C)C(CO)N1C(=O)[C@@H]2[C@H]3C(=O)OCC=C[C@H]3OC23C=CCN(C(C)(C)C)C(=O)[C@@H]13 (some centres not stated) next.
Out: -0.405

In: Try CCCCCN1CC=CC23O[C@@H]4C=CCOC(=O)[C@@H]4[C@H]2C(=O)N(CCO)[C@@H]3C1=O (some centres not stated) next.
Out: -0.903

In: Try CCCCCCCCCCC(O)C1C=CC2C(=O)N(c3ccccc3)C(=O)C2N1Nc1ccccc1F (configuration not stated) next.
Out: -0.591

---

Known composite z-score of a selection of molecules
Biological target: Follistatin-related protein 3 (Homo sapiens) (UniProt O95633)
Sequence (O95633 whole entry, looked up): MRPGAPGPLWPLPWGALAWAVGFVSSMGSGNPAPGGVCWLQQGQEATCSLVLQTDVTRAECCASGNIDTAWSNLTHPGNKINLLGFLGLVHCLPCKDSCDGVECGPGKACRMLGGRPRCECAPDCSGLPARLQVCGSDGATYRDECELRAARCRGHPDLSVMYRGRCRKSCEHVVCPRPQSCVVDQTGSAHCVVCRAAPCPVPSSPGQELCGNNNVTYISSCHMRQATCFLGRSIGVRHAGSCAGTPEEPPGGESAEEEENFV
Assay: FSTL3 binders on small-molecule microarrays, primary screen, biochemical, small-molecule microarray, 635 nm fluorescence (AID 1105);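 note: score merges emission near 667 nm and signal to noise per printed spot across three slides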
Conditions: FSTL3 binding, higher = more signal
Write the number on its own, no unit after it.

// worked examples, composite z-score included
item-smiles: COc1ccc(NC(=O)O[C@H]2[C@@H]3OC(=O)[C@H](Cc4cccc(Br)c4)C/C=C/C[C@@H](Cc4cccc(Br)c4)C(=O)O[C@H]3[C@@H](OC)O[C@@H]2CO)cc1
composite z-score: 0.324
--
item-smiles: CCOC(=O)C1=C[C@@H](C(C)(C)C)N(S(=O)(=O)c2ccc(C)cc2)[C@H]1c1cccc(Cl)c1
composite z-score: 1.36

Field: next molecule
In: Recorded composite z-score for [N-]=[N+]=NC[C@H](Cc1ccccc1)NC(=O)c1ccccc1 , please?
Out: -0.394

---

Assay: CREB reporter modulators under forskolin, primary screen, cell-based, PC12, CRE-LacZ reporter, forskolin-stimulated (AID 1146);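 note: PC12 cells with 6xCRE LacZ reporter stimulated by forskolin 10 µM; beta-galactosidase reporter signal reflecting CREB driven transcription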
Conditions: luminescence, 4.5 h, higher = more signal, called active from +8 up or from −8 down
z-score below 0.7 gives criterion not met; z-score at or above it gives criterion met.

Here are 3 compounds together with their reported answers.
compound: CC(C)OC(=O)CC(=O)CC(O)c1ccc([N+](=O)[O-])cc1 (stereo not given)
class-name: criterion met

compound: C=C/C=C/[C@@H]1C(=C)CN([C@@H](Cc2ccccc2)C(=O)OC)[C@H]1[C@@H](O)Cc1ccccc1
class-name: criterion met

compound: CCCCC(=C=CC[C@H](O)c1ccc(OCCO)cc1)C[C@H](O)c1cc(Cl)cc(Cl)c1O
class-name: criterion not met

As a next step, examine the compound that follows.
In: Has COC(=O)C1N=C(c2ccc(OCCCO)cc2)N(c2ccccc2)O1 (stereo not given) a recorded z-score greater than or equal to 0.7?
Out: criterion not met

---

Experiment: yeast growth modulation, basal conditions, primary screen, YJM789 clinical isolate, OD600, 24 h (AID 1089);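 note: growth of clinical yeast isolate S. cerevisiae YJM 789 seeded 1000 cells per well; test concentration not given here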
Conditions: S. cerevisiae YJM789 growth, higher = more signal, called active from +8 up or from −8 down
Calls of active or inactive are those of the source.
Known z-score of a selection of molecules

// worked examples, z-score included
molecule: COC(=O)C1N=C(c2ccc(OCCCO)cc2)N(c2ccccc2)O1 (stereo unspecified)
z-score: -0.686 (inactive)
--
molecule: C=CCOC(=O)[C@H]1[C@@H]2C(=O)O[C@@H](c3ccccc3)[C@@H](c3ccccc3)N2[C@@H](c2ccc(OCCOC(=O)[C@H]3C[C@H]4C(=O)N[C@@H](CCCCNC(C)=O)C(=O)N4[C@H]3c3cccc(OCCO)c3)cc2)[C@]12C(=O)Nc1ccc(I)cc12
z-score: 1.15 (inactive)
--
molecule: C=C(/C(=C/C[C@H](OC(=O)c1ccncc1)c1ccccc1OCCO)c1cnc2ccccc2c1)C(C)C
z-score: -2.36 (inactive)

In: Recorded z-score for Cc1ccc(F)cc1S(=O)(=O)N[C@@H]1CCN(Cc2cccc3[nH]ccc23)C1 , please?
Out: 0.84 (inactive)

In: Try COCCOC(=O)N1C(=O)[C@@]2(c3cc(C#CCCO)ccc31)[C@H](c1ccccc1OCCO)N1[C@H](c3ccccc3)[C@H](c3ccccc3)OC(=O)[C@H]1[C@@H]2C(=O)N1CCCCCCC1 next.
Out: 1.76 (inactive)

In: Try COC(=O)[C@@]1(Cc2ccc(F)cc2)[C@H]2c3cc(C(=O)N(C)C)n(Cc4ccc(O)c(OC)c4)c3C[C@H]2CN1C(=O)c1ccccc1 next.
Out: 0.0973 (inactive)

The origin of these recorded values is PubChem BioAssay.
